viability, T/C overview
test system: 624824-186-R-J2-PDC multicell spheroids, viability; assay: Anticancer human tumor 624824-186-R-J2-PDC patient-derived colon adenocarcinoma cell line growth inhibition [PI3K]; conditions: second compound 0.0316 µM; first compound 1 µM; stronger effect = lower value
Write the answer as a number in %, unit excluded.

Worked set:
# Compound, viability, T/C, %
data = [
    ("CC(C)NCC(C(=O)N1CCN(c2ncnc3c2C(C)CC3O)CC1)c1ccc(Cl)cc1 (stereo not given) + COc1c(OCCCN2CCOCC2)ccc2c3n(c(=NC(=O)c4cnc(N)nc4)nc12)CCN3", 89.7),
    ("C#Cc1c(F)ccc2cc(O)cc(-c3ncc4c(N5CC6CCC(C5)N6)nc(OCC56CCCN5CC(F)C6)nc4c3F)c12 (stereo not given) + Cc1nc(NC(=O)N2CCCC2C(N)=O)sc1-c1ccnc(C(C)(C)C(F)(F)F)c1", 80.9),
    ("CC1(C)CCC(CN2CCN(c3ccc(C(=O)NS(=O)(=O)c4ccc(NCC5CCOCC5)c([N+](=O)[O-])c4)c(Oc4cnc5[nH]ccc5c4)c3)CC2)=C(c2ccc(Cl)cc2)C1 + CC(Nc1ccc2c(c1)OCCn1cc(N3C(=O)OCC3C(F)F)nc1-2)C(N)=O", 72.7),
]

input: Field request: viability, T/C | item: CC1(C)CCC(CN2CCN(c3ccc(C(=O)NS(=O)(=O)c4ccc(NCC5CCOCC5)c([N+](=O)[O-])c4)c(Oc4cnc5[nH]ccc5c4)c3)CC2)=C(c2ccc(Cl)cc2)C1 + COc1c(OCCCN2CCOCC2)ccc2c3n(c(=NC(=O)c4cnc(N)nc4)nc12)CCN3
output: 90.7

input: Field request: viability, T/C | item: C=CC(=O)N1CCN(c2nc(=O)n(-c3c(C)ccnc3C(C)C)c3nc(-c4c(O)cccc4F)c(F)cc23)C(C)C1 (stereo not given) + Cc1nc(NC(=O)N2CCCC2C(N)=O)sc1-c1ccnc(C(C)(C)C(F)(F)F)c1
output: 101

* * *

system: 624824-186-R-J2-PDC multicell spheroids, viability; assay: Anticancer human tumor 624824-186-R-J2-PDC cell line growth inhibition [PI3K]; settings: second compound 3.16 µM; first compound 3.16 µM; stronger effect = lower value;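 further: spheroids exposed to agents for 7 days before viability read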;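 on viability, T/C: 100% = DMSO vehicle treated spheroids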
Reported Property: viability, T/C (%)
Write the answer as a number in %, unit excluded.

Worked set:
# Compound, Unit, viability, T/C
rows = [
    ("CNC(=O)c1ccc(N2C(=S)N(c3ccc(C#N)c(C(F)(F)F)c3)C(=O)C2(C)C)cc1F + CC(Nc1ncnc2nc[nH]c12)c1cc2cccc(Cl)c2c(=O)n1-c1ccccc1", "%", 83.2),
    ("C=CC(=O)N1CCN(c2nc(=O)n(-c3c(C)ccnc3C(C)C)c3nc(-c4c(O)cccc4F)c(F)cc23)C(C)C1 (stereo not drawn) + Cc1nc(NC(=O)N2CCCC2C(N)=O)sc1-c1ccnc(C(C)(C)C(F)(F)F)c1", "%", 82.6),
]

Moving on to another compound below.
input: Field request: viability, T/C | item: CCCS(=O)(=O)Nc1ccc(F)c(C(=O)c2c[nH]c3ncc(-c4ccc(Cl)cc4)cc23)c1F + Cc1nc(NC(=O)N2CCCC2C(N)=O)sc1-c1ccnc(C(C)(C)C(F)(F)F)c1
output: 52

* * *

tested on: 624824-186-R-J2-PDC multicell spheroids, viability; assay: Anticancer human tumor 624824-186-R-J2-PDC cell line growth inhibition [PI3K]; details: compound 1 µM; stronger effect = lower value;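 further: spheroids exposed to agents for 7 days before viability read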;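 on viability, T/C: 100% = DMSO vehicle treated spheroids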
Reported Property: viability, T/C

Worked set:
# Molecule, Target Entity, viability, T/C
rows = [
    ("Cn1ncc(Cl)c1-c1cc(C(=O)NC(CN)Cc2cccc(F)c2)sc1Cl (stereo not given)", "624824-186-R-J2-PDC multicell spheroids, viability", "89.4% [middle of 4 runs]"),
    ("C[C@@H](NC(=O)c1ncnc(N)c1Cl)c1ncc(C(=O)Nc2cc(C(F)(F)F)c(Cl)cn2)s1", "624824-186-R-J2-PDC multicell spheroids, viability", "81.6% [middle of 4 runs]"),
    ("CCN1CCN(Cc2ccc(Nc3ncc(F)c(-c4cc(F)c5nc(C)n(C(C)C)c5c4)n3)nc2)CC1", "624824-186-R-J2-PDC multicell spheroids, viability", "102% [middle of 4 runs]"),
    ("CC(Nc1ncnc2nc[nH]c12)c1cc2cccc(Cl)c2c(=O)n1-c1ccccc1 (stereo not given)", "624824-186-R-J2-PDC multicell spheroids, viability", "91.4% [middle of 8 runs]"),
]

Moving on to another molecule below.
input: Field request: viability, T/C | item: COc1c(OCCCN2CCOCC2)ccc2c3n(c(=NC(=O)c4cnc(N)nc4)nc12)CCN3
output: 65.1% [middle of 8 runs]

* * *

viability, T/C overview
tested on: 624824-186-R-J2-PDC multicell spheroids, viability; assay: Anticancer human tumor 624824-186-R-J2-PDC cell line growth inhibition [PI3K]; conditions: second compound 0.00316 µM; first compound 1 µM; stronger effect = lower value;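 further: spheroids exposed to agents for 7 days before viability read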;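 on viability, T/C: 100% = DMSO vehicle treated spheroids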
Write the answer as a number in %, unit excluded.

# Compound, Target Entity, Unit, viability, T/C
records = [
    ("CCCS(=O)(=O)Nc1ccc(F)c(C(=O)c2c[nH]c3ncc(-c4ccc(Cl)cc4)cc23)c1F + COc1c(OCCCN2CCOCC2)ccc2c3n(c(=NC(=O)c4cnc(N)nc4)nc12)CCN3", "624824-186-R-J2-PDC multicell spheroids, viability", "%", 111),
    ("C=CC(=O)N1CCN(c2nc(=O)n(-c3c(C)ccnc3C(C)C)c3nc(-c4c(O)cccc4F)c(F)cc23)C(C)C1 (stereo not drawn) + COc1c(OCCCN2CCOCC2)ccc2c3n(c(=NC(=O)c4cnc(N)nc4)nc12)CCN3", "624824-186-R-J2-PDC multicell spheroids, viability", "%", 77.9),
]

Moving on to another compound below.
input: Field request: viability, T/C | item: CCN1CCN(Cc2ccc(Nc3ncc(F)c(-c4cc(F)c5nc(C)n(C(C)C)c5c4)n3)nc2)CC1 + CC(Nc1ccc2c(c1)OCCn1cc(N3C(=O)OCC3C(F)F)nc1-2)C(N)=O
output: 118

* * *

system: 624824-186-R-J2-PDC multicell spheroids, viability; assay: Anticancer human tumor 624824-186-R-J2-PDC cell line growth inhibition [PI3K]; conditions: second compound 10 µM; first compound 0.316 µM; stronger effect = lower value;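 further: spheroids exposed to agents for 7 days before viability read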;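 on viability, T/C: 100% = DMSO vehicle treated spheroids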
Reported Property: viability, T/C (%)
Write the answer as a number in %, unit excluded.

# Compound, viability, T/C / %
data = [
    ("CC1(C)CCC(CN2CCN(c3ccc(C(=O)NS(=O)(=O)c4ccc(NCC5CCOCC5)c([N+](=O)[O-])c4)c(Oc4cnc5[nH]ccc5c4)c3)CC2)=C(c2ccc(Cl)cc2)C1 + CC(Nc1ncnc2nc[nH]c12)c1cc2cccc(Cl)c2c(=O)n1-c1ccccc1", 108),
    ("C=CC(=O)N1CCN(c2nc(=O)n(-c3c(C)ccnc3C(C)C)c3nc(-c4c(O)cccc4F)c(F)cc23)C(C)C1 (stereo not given) + CC(Nc1ncnc2nc[nH]c12)c1cc2cccc(Cl)c2c(=O)n1-c1ccccc1", 109),
    ("CC1(C)CCC(Nc2ncc(C(F)(F)F)c(-c3c[nH]c4c(P(C)(C)=O)c(C#N)ccc34)n2)CN1 (stereo not given) + CC(Nc1ncnc2nc[nH]c12)c1cc2cccc(Cl)c2c(=O)n1-c1ccccc1", 92.3),
]

input: Identify the measured viability, T/C of CC(C)NCC(C(=O)N1CCN(c2ncnc3c2C(C)CC3O)CC1)c1ccc(Cl)cc1 (stereo not given) + Cc1nc(NC(=O)N2CCCC2C(N)=O)sc1-c1ccnc(C(C)(C)C(F)(F)F)c1 for 624824-186-R-J2-PDC multicell spheroids, viability.
output: 58.1

input: Identify the measured viability, T/C of CC1(C)CCC(Nc2ncc(C(F)(F)F)c(-c3c[nH]c4c(P(C)(C)=O)c(C#N)ccc34)n2)CN1 (stereo not given) + Cc1nc(NC(=O)N2CCCC2C(N)=O)sc1-c1ccnc(C(C)(C)C(F)(F)F)c1 for 624824-186-R-J2-PDC multicell spheroids, viability.
output: 62

* * *

tested on: 624824-186-R-J2-PDC multicell spheroids, viability; assay: Anticancer human tumor 624824-186-R-J2-PDC cell line growth inhibition [PI3K]; conditions: curve of first compound; second compound 0.316 µM;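 further: spheroids exposed to agents for 7 days before viability read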
Reported Property: IC50

Worked set:
# Molecule, IC50
rows = [
    ("CCN1CCN(Cc2ccc(Nc3ncc(F)c(-c4cc(F)c5nc(C)n(C(C)C)c5c4)n3)nc2)CC1 + Cc1nc(NC(=O)N2CCCC2C(N)=O)sc1-c1ccnc(C(C)(C)C(F)(F)F)c1", "> 1 µM"),
    ("Cn1ncnc1[C@H]1c2n[nH]c(=O)c3cc(F)cc(c23)N[C@@H]1c1ccc(F)cc1 + COc1c(OCCCN2CCOCC2)ccc2c3n(c(=NC(=O)c4cnc(N)nc4)nc12)CCN3", "> 0.1 µM"),
    ("CNC(=O)c1ccc(N2C(=S)N(c3ccc(C#N)c(C(F)(F)F)c3)C(=O)C2(C)C)cc1F + CC(Nc1ccc2c(c1)OCCn1cc(N3C(=O)OCC3C(F)F)nc1-2)C(N)=O", "> 10 µM"),
    ("CC1(C)CCC(Nc2ncc(C(F)(F)F)c(-c3c[nH]c4c(P(C)(C)=O)c(C#N)ccc34)n2)CN1 (stereo unspecified) + Cc1nc(NC(=O)N2CCCC2C(N)=O)sc1-c1ccnc(C(C)(C)C(F)(F)F)c1", "4.4 µM"),
    ("Cn1cnc2c(F)c(Nc3ccc(Br)cc3Cl)c(C(=O)NOCCO)cc21 + Cc1nc(NC(=O)N2CCCC2C(N)=O)sc1-c1ccnc(C(C)(C)C(F)(F)F)c1", "> 3 µM"),
]

Moving on to another molecule below.
input: Field request: IC50 | item: CC(C)n1nc(-c2ccc3oc(N)nc3c2)c2c(N)ncnc21 + CC(Nc1ccc2c(c1)OCCn1cc(N3C(=O)OCC3C(F)F)nc1-2)C(N)=O
output: > 0.1 µM
